- target under test: KRAS 4B G12C protein (Homo sapiens, UniProt P01116, G12C)
- Construct: This protein contained 188 amino acids in total, including an N-terminal 6-Histidine tag; made in house; host or cells: E. coli BL21
- experiment: In vitro covalent adduct formation (CAF) assay by LC-MS
- Type: binding
- test context: 10 minutes; compound 10 μM, protein 5 μM, 22° C.; percentage of protein bound by the compound
Provide the reported CAF (10 minutes/60 minutes) at 10 micromolar: 10 minutes of each item.
Answers are plain numbers, in %.

Some molecules with recorded CAF (10 minutes/60 minutes) at 10 micromolar: 10 minutes:
>  <molecule>
C=CC(=O)N1CCN(c2nc(OC[C@@H]3CCCN3C)nc3c2CN(Cc2cc(O)cc4ccccc24)C3)C[C@@H]1CC#N

>  <value unit>
%

>  <measured number>
94

$$$$
>  <molecule>
C=CC(=O)N1CCN(c2nc(OC[C@@H]3CCCN3C)nc3c2CN(Cc2c(F)cccc2F)C3)[C@@H](C)C1

>  <value unit>
%

>  <measured number>
0

$$$$
>  <molecule>
C=CC(=O)N1CCN(c2nc(OC[C@@H]3CCCN3C)nc3c2CN(Cc2cc(Cl)ccc2Cl)C3)[C@@H](C)C1

>  <value unit>
%

>  <measured number>
3

$$$$

Batch lookup, CAF (10 minutes/60 minutes) at 10 micromolar: 10 minutes per entry.
1. C=CC(=O)N1CCN(c2nc(OC[C@@H]3CCCN3C)nc3c2CN(Cc2cc(O)ccc2C(C)C)C3)C[C@@H]1CC#N
2. C=CC(=O)N1CCN(c2nc(OC[C@@H]3CCCN3C)nc3c2CN(C2CCc4ccccc42)C3)C[C@@H]1C(O)C(F)(F)F (stereo partly shown) [1-117]
3. C=CC(=O)N1CCN(c2nc(OC[C@@H]3CCCN3C)nc3c2CN(C2CCc4ccccc42)C3)C[C@@H]1Cn1cccn1 (stereo partly shown)

// result
96
0
0

====

I'd be grateful if you could share measured CAF (10 minutes/60 minutes) at 10 micromolar: 10 minutes for these entries.
- target under test: KRAS 4B G12C protein (Homo sapiens, UniProt P01116, G12C)
- Construct: This protein contained 188 amino acids in total, including an N-terminal 6-Histidine tag; made in house; host or cells: E. coli BL21
- experiment: In vitro covalent adduct formation (CAF) assay by LC-MS
- Type: binding
- test context: 10 minutes; compound 10 μM, protein 5 μM, 22° C.; percentage of protein bound by the compound
Answers are plain numbers, in %.

State the recorded CAF (10 minutes/60 minutes) at 10 micromolar: 10 minutes for every item in the following list.
1. C=C(F)C(=O)N1CCN(c2nc(OC[C@@H]3CCCN3C)nc3c2CN(Cc2c(Cl)ccc4nc[nH]c24)C3)C[C@@H]1CC#N [1-320]
2. C=CC(=O)N1CCN(c2nc(OC[C@@H]3CCCN3C)nc3c2CN(C2CCc4ccccc42)C3)C[C@@H]1CS(C)(=O)=O (stereo partly shown) [1-200]
3. C=CC(=O)N1CCN(c2nc(OC[C@@H]3CCCN3C(C)C)nc3c2CN(C2CCc4ccccc42)C3)C[C@@H]1CC#N (stereo partly shown) [1-176]

// result
1. 76
2. 0
3. 88

====

- target under test: KRAS 4B G12C protein (Homo sapiens, UniProt P01116, G12C)
- Construct: This protein contained 188 amino acids in total, including an N-terminal 6-Histidine tag; made in house; host or cells: E. coli BL21
- experiment: In vitro covalent adduct formation (CAF) assay by LC-MS
- Type: binding
- test context: 10 minutes; compound 10 μM, protein 5 μM, 22° C.; percentage of protein bound by the compound
For each of the compounds below, state its CAF (10 minutes/60 minutes) at 10 micromolar: 10 minutes.

>  <compound>
C=CC(=O)N1CCN(c2nc(OC[C@@H]3CCCO3)nc3c2CN(Cc2c(O)cccc2F)C3)C[C@@H]1CC#N [1-95]

>  <result>
21%

$$$$
>  <compound>
C=CC(=O)N1CCN(c2nc(OC[C@@H]3CCCN3C)nc3c2CN(C(C)c2c(O)cccc2F)C3)C[C@@H]1CC#N (stereo partly shown) [1-111]

>  <result>
87%

$$$$
>  <compound>
C=CC(=O)N1[C@H](C)CN(c2nc(OC[C@@H]3CCCN3C)nc3c2CN(Cc2c(Cl)ccc(O)c2C)C3)C[C@H]1C [1-341]

>  <result>
0%/ 0%

$$$$

# evaluate next
// query So what's the measured CAF (10 minutes/60 minutes) at 10 micromolar: 10 minutes for this one? C=C(F)C(=O)N1CCN(c2nc(OC[C@@H]3CCCN3C)nc3c2CN(Cc2nc(N)cc(C)c2C(F)(F)F)C3)C[C@@H]1CC#N [1-334]
// result 79%

====

- target under test: KRAS 4B G12C protein (Homo sapiens, UniProt P01116, G12C)
- Construct: This protein contained 188 amino acids in total, including an N-terminal 6-Histidine tag; made in house; host or cells: E. coli BL21
- experiment: In vitro covalent adduct formation (CAF) assay by LC-MS
- Format: binding
- test context: 60 minutes; compound 10 μM, protein 5 μM, 22° C.; percentage of protein bound by the compound
measurement kind: CAF (10 minutes/60 minutes) at 10 micromolar: 60 minutes (%/ 0%)
One number for each entry, in %/ 0%.

>  <compound>
CN1CCC[C@H]1COc1nc2c(c(N3CCN(C(=O)C45CC4C5)[C@@H](CC#N)C3)n1)CN(C1CCc3ccccc31)C2 (stereo partly shown)

>  <value unit>
%/ 0%

>  <measured number>
0

$$$$

// query Fill in the blank: the reported CAF (10 minutes/60 minutes) at 10 micromolar: 60 minutes of "C=CC(=O)N1CCN(c2nc(OC[C@@H]3CCCN3C)nc3c2CN(Cc2c(Cl)cccc2OC(F)F)C3)C[C@H]1C" is ____.
// result 0

====

Assign CAF (10 minutes/60 minutes) at 10 micromolar: 60 minutes to each entry below.
- target under test: KRAS 4B G12C protein (Homo sapiens, UniProt P01116, G12C)
- Construct: This protein contained 188 amino acids in total, including an N-terminal 6-Histidine tag; made in house; host or cells: E. coli BL21
- experiment: In vitro covalent adduct formation (CAF) assay by LC-MS
- Type: binding
- test context: 60 minutes; compound 10 μM, protein 5 μM, 22° C.; percentage of protein bound by the compound
One number for each entry, in %.

>  <compound>
C=CC(=O)N1CCN(c2nc(OC[C@@H]3CCCN3C)nc3c2CN(C2CCCc4ccccc42)C3)C[C@@H]1CC#N (stereo partly drawn) [1-52 (2nd isomer)]

>  <measured number>
91

$$$$
>  <compound>
C=CC(=O)N1CCN(c2nc(OC[C@@H]3CCCN3C)nc3c2CN(S(=O)(=O)c2cccc4ccccc24)C3)C[C@@H]1CC#N

>  <measured number>
95

$$$$

Consider now this further compound.
// query What does the data say about its CAF (10 minutes/60 minutes) at 10 micromolar: 60 minutes? Entry: "C=CC(=O)N1CCN(c2nc(OC[C@@H]3CCCN3C)nc3c2CN(c2cccc4cccc(C)c24)C3)C[C@@H]1CC(F)(F)F"
// result 1

====

Could you please report measured CAF (10 minutes/60 minutes) at 10 micromolar: 60 minutes for the items listed next?
- target under test: KRAS 4B G12C protein (Homo sapiens, UniProt P01116, G12C)
- Construct: This protein contained 188 amino acids in total, including an N-terminal 6-Histidine tag; made in house; host or cells: E. coli BL21
- experiment: In vitro covalent adduct formation (CAF) assay by LC-MS
- Format: binding
- test context: 60 minutes; compound 10 μM, protein 5 μM, 22° C.; percentage of protein bound by the compound
One number for each entry, in %.

Kindly give each listed record's CAF (10 minutes/60 minutes) at 10 micromolar: 60 minutes.
1. C=CC(=O)N1CCN(c2nc(OC[C@@H]3CCCN3C)nc3c2CN(Cc2nc(OC)ccc2Cl)C3)[C@@H](C)C1
2. C=CC(=O)N1CCN(c2nc(OC[C@@H]3CCCN3C)nc3c2CN(Cc2cc(O)ccc2C(C)C)C3)C[C@@H]1CC#N
3. C=C(F)C(=O)N1CCN(c2nc(OC[C@@H]3CCCN3C)nc3c2CN(Cc2c(Cl)cccc2OC(F)F)C3)C[C@@H]1CC#N

// result
[2, 97, 48]

====

- target under test: KRAS 4B G12C protein (Homo sapiens, UniProt P01116, G12C)
- Construct: This protein contained 188 amino acids in total, including an N-terminal 6-Histidine tag; made in house; host or cells: E. coli BL21
- experiment: In vitro covalent adduct formation (CAF) assay by LC-MS
- Format: binding
- test context: 60 minutes; compound 10 μM, protein 5 μM, 22° C.; percentage of protein bound by the compound
Binary classification by CAF (10 minutes/60 minutes) at 10 micromolar: 60 minutes, with 80% as an inclusive lower bound for fulfilled; all other cases are not fulfilled.

>  <compound>
C=CC(=O)N1CCN(c2nc(OC[C@@H]3CCCN3C)nc3c2CN(Cc2cccc(F)c2)C3)C[C@@H]1CC#N

>  <classification>
fulfilled

$$$$
>  <compound>
C=CC(=O)N1CCN(c2nc(OC[C@@H]3CCCN3C)nc3c2CN(Cc2ccccc2Cl)C3)C[C@@H]1CC#N

>  <classification>
fulfilled

$$$$
>  <compound>
C=CC(=O)N1CCN(c2nc(OC[C@@H]3CCC(=O)N3C)nc3c2CN(C2CCc4ccccc42)C3)C[C@@H]1CC#N (some centres unmarked)

>  <classification>
not fulfilled

$$$$
>  <compound>
C=CC(=O)N1CCN(c2nc(OC[C@@H]3CCCN3C)nc3c2CN(Cc2cc(O)ccc2Cl)C3)[C@@H](C)C1

>  <classification>
fulfilled

$$$$
>  <compound>
C=CC(=O)N1CCN(c2nc(OC[C@@H]3CCCN3C)nc3c2CN(C2CCCc4ccccc42)C3)C[C@@H]1CC#N (some centres unmarked) [1-52]

>  <classification>
fulfilled

$$$$
>  <compound>
C=C(F)C(=O)N1CCN(c2nc(OC[C@@H]3CCCN3C)nc3c2CN(Cc2c(C)cc(C)c(O)c2C)C3)C[C@@H]1CC#N

>  <classification>
not fulfilled

$$$$
>  <compound>
C=CC(=O)N1CCN(c2nc(OC[C@@H]3CCCN3C)nc3c2CN(Cc2c(C)cccc2OC)C3)C[C@@H]1CC#N

>  <classification>
fulfilled

$$$$
>  <compound>
C=CC(=O)N1C[C@H](C)N(c2nc(OC[C@@H]3CCCN3C)nc3c2CN(Cc2cc(O)ccc2C)C3)C[C@H]1C

>  <classification>
not fulfilled

$$$$
>  <compound>
C=CC(=O)N1CCN(c2nc(OC[C@@H]3CCCN3C)nc3c2CN(Cc2cccc4ncccc24)C3)C[C@@H]1CC#N

>  <classification>
not fulfilled

$$$$
>  <compound>
C=CC(=O)N1CCN(c2nc(OC[C@@H]3CCCN3C)nc3c2CN(C2CCc4ccccc42)C3)[C@@H](C(N)=O)C1 (some centres unmarked)

>  <classification>
not fulfilled

$$$$

Would you kindly look at the next entry?
// query In plain terms: is recorded CAF (10 minutes/60 minutes) at 10 micromolar: 60 minutes at least 80% for C=CC(=O)N1CCN(c2nc(OC[C@@H]3CCCN3C)nc3c2CN(C2CCc4ccccc42)C3)C[C@@H]1Cn1nccn1 (some centres unmarked) ?
// result not fulfilled
